Hey, just so you know, these numbers are from paper PMC8016166.

# Tested System: human 5-HT6 (Homo sapiens, UniProt P50406)
# Construct: expressed in transfected cells
# Sequence (P50406 whole entry): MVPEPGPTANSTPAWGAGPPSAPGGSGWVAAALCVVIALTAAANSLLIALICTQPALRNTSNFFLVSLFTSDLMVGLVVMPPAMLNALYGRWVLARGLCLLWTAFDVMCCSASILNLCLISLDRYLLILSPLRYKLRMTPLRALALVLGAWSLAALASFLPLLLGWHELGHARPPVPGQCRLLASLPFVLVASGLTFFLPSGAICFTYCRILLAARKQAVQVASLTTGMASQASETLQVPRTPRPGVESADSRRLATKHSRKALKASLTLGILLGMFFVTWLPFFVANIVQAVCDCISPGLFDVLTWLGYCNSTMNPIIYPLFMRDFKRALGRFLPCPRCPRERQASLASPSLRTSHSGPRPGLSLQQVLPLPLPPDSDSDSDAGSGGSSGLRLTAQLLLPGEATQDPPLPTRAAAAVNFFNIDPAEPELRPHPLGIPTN
# Method Notes: Radioligand binding at 5-HT6 in transfected HEK293 cells
# Measurement Context: Antilog [pKi (5-HT1AR) – pKi (5-HT6R)]
Could you label it true if measured selectivity 5-HT6/5-HT1A is 700 or higher, and false otherwise?

molecule="Cn1cncc1-c1ccccc1OCCNC[C@H]1COC(c2ccccc2)(c2ccccc2)O1 [(S)-2]" class_assignment=true
molecule="c1ccc(C2(c3ccccc3)OCC(CNCCOc3ccccc3-c3ccncc3)O2)cc1 (racemic) [rac-1]" class_assignment=true
molecule="c1ccc(C2(c3ccccc3)OC[C@H](CNCCOc3ccccc3-c3ccncc3)O2)cc1 [(S)-1]" class_assignment=false
molecule="c1ccc(C2(c3ccccc3)OC[C@@H](CNCCOc3ccccc3-c3ccncc3)O2)cc1 [(R)-1]" class_assignment=true
molecule="Cn1cncc1-c1ccccc1OCCNC[C@@H]1COC(c2ccccc2)(c2ccccc2)O1 [(R)-2]" class_assignment=false
molecule="Cn1cncc1-c1ccccc1OCCNCC1COC(c2ccccc2)(c2ccccc2)O1 (racemic) [rac-2]" class_assignment=false

* * *

# Tested System: 5-HT1AR (Rattus norvegicus)
# Construct: from tissue; hippocampus per the main-text methods
# Method Notes: [35S]GTPγS functional 5-HT1A assay in rat hippocampal membranes
# Format: biochemical
# Measurement Context: [35S]GTPγS binding; partial = half (or lower) as efficacious as serotonin
Endpoint Label: agonist classification by Emax vs serotonin

molecule="Cn1cncc1-c1ccccc1OCCNCC1COC(c2ccccc2)(c2ccccc2)O1 (racemic)" tested_system="5-HT1AR (Rattus norvegicus)" value_observed="full agonists"
molecule="Cn1cncc1-c1ccccc1OCCNC[C@@H]1COC(c2ccccc2)(c2ccccc2)O1 [(R)-2]" tested_system="5-HT1AR (Rattus norvegicus)" value_observed="partial agonists"
molecule="c1ccc(C2(c3ccccc3)OCC(CNCCOc3ccccc3-c3ccncc3)O2)cc1 (racemic)" tested_system="5-HT1AR (Rattus norvegicus)" value_observed="partial agonists"
molecule="c1ccc(C2(c3ccccc3)OC[C@@H](CNCCOc3ccccc3-c3ccncc3)O2)cc1 [(R)-1]" tested_system="5-HT1AR (Rattus norvegicus)" value_observed="partial agonists"
molecule="Cn1cncc1-c1ccccc1OCCNC[C@H]1COC(c2ccccc2)(c2ccccc2)O1 [(S)-2]" tested_system="5-HT1AR (Rattus norvegicus)" value_observed="full agonists"
molecule="c1ccc(C2(c3ccccc3)OC[C@H](CNCCOc3ccccc3-c3ccncc3)O2)cc1 [(S)-1]" tested_system="5-HT1AR (Rattus norvegicus)" value_observed="partial agonists"

* * *

# Tested System: 5-HT1AR (Rattus norvegicus, UniProt P19327)
# Construct: from tissue; hippocampus per the main-text methods
# Sequence (P19327 whole entry): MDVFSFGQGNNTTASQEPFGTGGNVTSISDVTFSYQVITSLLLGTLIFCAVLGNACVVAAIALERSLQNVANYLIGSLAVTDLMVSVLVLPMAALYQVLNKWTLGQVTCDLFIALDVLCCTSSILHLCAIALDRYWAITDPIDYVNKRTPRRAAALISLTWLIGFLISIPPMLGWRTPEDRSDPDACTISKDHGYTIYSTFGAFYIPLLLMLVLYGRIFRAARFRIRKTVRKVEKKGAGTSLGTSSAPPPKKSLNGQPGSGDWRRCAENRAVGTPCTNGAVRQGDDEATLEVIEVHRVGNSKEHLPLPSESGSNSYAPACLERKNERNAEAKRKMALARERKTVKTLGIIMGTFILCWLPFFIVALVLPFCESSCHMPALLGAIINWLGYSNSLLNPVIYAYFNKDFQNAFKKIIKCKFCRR
# Method Notes: [35S]GTPγS functional 5-HT1A assay in rat hippocampal membranes
# Format: biochemical
# Measurement Context: rat hippocampal membranes; [35S]GTPγS; three independent experiments; read-out: 5-HT1A pEC50 ± SEM (converted)
Endpoint Label: EC50 (nM)

compound="Cn1cncc1-c1ccccc1OCCNC[C@@H]1COC(c2ccccc2)(c2ccccc2)O1 [(R)-2]" endpoint_label=EC50 value_observed=63.1
compound="Cn1cncc1-c1ccccc1OCCNCC1COC(c2ccccc2)(c2ccccc2)O1 (racemic)" endpoint_label=EC50 value_observed=39.8
compound="c1ccc(C2(c3ccccc3)OC[C@@H](CNCCOc3ccccc3-c3ccncc3)O2)cc1 [(R)-1]" endpoint_label=EC50 value_observed=63.1
compound="c1ccc(C2(c3ccccc3)OC[C@H](CNCCOc3ccccc3-c3ccncc3)O2)cc1 [(S)-1]" endpoint_label=EC50 value_observed=15.8
compound="Cn1cncc1-c1ccccc1OCCNC[C@H]1COC(c2ccccc2)(c2ccccc2)O1 [(S)-2]" endpoint_label=EC50 value_observed=25.1
